Let's look at some compounds and their measured half-life.
# protocol-summary: Stability (half life) in buffer solutions at pH 3, 5 and 7 at 50, 75 or 100 °C
# Type: physicochemical
# condition-info: buffer, pH 3, buffer solution, 50 °C, pH 3
Just the number in days, nothing appended.

Query C[C@@H](NC(=O)[C@@H](N)CC(=O)O)C(=O)OC1C2(C)CCC(C2)C1(C)C (single isomer, unassigned) [Example 10, α-L-Aspartyl-D-alanine[β(+)Fenchyl]ester] yields half-life of 22

New cases:
Note to self: half-life recorded for CC(C)(NC(=O)[C@@H](N)CC(=O)O)C(=O)OC1C2(C)CCC(C2)C1(C)C (single isomer, unassigned) was 64
